run-description: folding stability dG unfold from trypsin proteolysis; higher = more stable
Binary call on folding stability dG unfold: TRUE from 0.5 kcal/mol upward, FALSE beneath that.

Example entries begin here.
query_sequence="SAGGSAGGSIEELAKKTNIIEVKVTEFPNPKFKKAFIVYKNPKENKYKKGIYIFYDKKDGKLESAGGSAGGS [r12_133_TrMRF]" category=FALSE
query_sequence="SAGGMTIEELLKKNPELKELVKKGYVIEITYPDGKKETIKISEEDLKKILDDIKKKTNKPVEIKILPSAGGS [r16_655_TrROS_Hall]" category=TRUE
query_sequence="SAGMAEKIKAELEKKGYKYEIEEVKDPNNDKTYLIVKIYPKDGKEYIIIFDKEKGEVIKKIPSDEPNILSAG [r5_938_JUSTAS]" category=TRUE

Ask: Can SAGGSAGGSSLEEIAKKLGLKPGMRVRLSDGKVLEVPSLDDLKAALEAGLSLEELKKIEIEPVSAGGSAGGS [r12_430_TrROS_Hall] be said to have folding stability dG unfold at or above 0.5 kcal/mol?
Result: TRUE

Ask: Can SAGGSAGGSADYFMVVIKYYPPNGEKQEHPFSVPFKDEEDLKDEIKEQAPPGREVEIEIFPMSAGGSAGGSA [r18_60_TrROS] be said to have folding stability dG unfold at or above 0.5 kcal/mol?
Result: TRUE

Ask: Can SAGGSAGGSPVLIPVKTPEEIKKFLEKASSDAKFKVFNNKGEWKEVSKNEISVTPEEQFILVYSAGGSAGGS [r12_907_TrMRF] be said to have folding stability dG unfold at or above 0.5 kcal/mol?
Result: FALSE

Values compiled from the supplement of paper PMC12764529.
